- assay.overview: Tanguay_ZF_120hpf_TR_legacy: (Legacy) Oregon State University Tanguay Lab 120 Hour Post-fertilization zebrafish Assay for Touch Response (AID 2283667)
Results filed as inconclusive are left out. Calls of active or inactive are those of the source. The calls were made as follows: active = hit-call score of the fitted dose curve at least 0.9, where 1 is the maximum; inconclusive = response in the unintended direction; inactive = score below 0.9.
Classes used: active, inactive

>  <molecule>
CNC(=O)/C=C(\C)OP(=O)(OC)OC

>  <category.label>
inactive

$$$$
>  <molecule>
CCOC1Oc2ccc(OS(C)(=O)=O)cc2C1(C)C (configuration not stated)

>  <category.label>
inactive

$$$$
>  <molecule>
CC(C)OC(=O)Nc1cccc(Cl)c1

>  <category.label>
inactive

$$$$
>  <molecule>
O=C(O)COc1ccc(Cl)cc1Cl

>  <category.label>
inactive

$$$$
>  <molecule>
CCOCN(C(=O)CCl)c1c(C)cccc1CC

>  <category.label>
inactive

$$$$
>  <molecule>
Oc1cc(Cl)ccc1Oc1ccc(Cl)cc1Cl

>  <category.label>
inactive

$$$$
>  <molecule>
CNC(=O)Oc1ccccc1OC(C)C

>  <category.label>
inactive

$$$$
>  <molecule>
CCc1ccc(C(=O)NN(C(=O)c2cc(C)cc(C)c2)C(C)(C)C)cc1

>  <category.label>
inactive

$$$$
>  <molecule>
CCCN(CCC)c1c([N+](=O)[O-])cc(C(F)(F)F)cc1[N+](=O)[O-]

>  <category.label>
inactive

$$$$
>  <molecule>
Cc1[nH]c(=O)n(C(C)(C)C)c(=O)c1Cl

>  <category.label>
active

$$$$
>  <molecule>
CCN(CC)C(=O)SCc1ccc(Cl)cc1

>  <category.label>
inactive

$$$$
>  <molecule>
O=C(O)C(F)(F)C(F)(F)C(F)(F)C(F)(F)C(F)(F)C(F)(F)C(F)(F)F

>  <category.label>
inactive

$$$$
>  <molecule>
CN1CSC(=S)N(C)C1

>  <category.label>
inactive

$$$$
>  <molecule>
CCC(C)(NC(=O)c1cc(Cl)c(C)c(Cl)c1)C(=O)CCl (configuration not stated)

>  <category.label>
active

$$$$
>  <molecule>
CNC(=O)Oc1cccc(N=CN(C)C)c1

>  <category.label>
inactive

$$$$
>  <molecule>
CCC(C)Nc1c([N+](=O)[O-])cc(C(C)(C)C)cc1[N+](=O)[O-] (configuration not stated)

>  <category.label>
inactive

$$$$
>  <molecule>
O=C(NC(=O)c1c(F)cccc1F)Nc1ccc(OC(F)(F)C(F)OC(F)(F)F)c(Cl)c1 (configuration not stated)

>  <category.label>
inactive

$$$$
>  <molecule>
C[C@H]1[C@H](c2ccc(Cl)cc2)SC(=O)N1C(=O)NC1CCCCC1

>  <category.label>
inactive

$$$$
>  <molecule>
O=[N+]([O-])/N=C1\NCCN1Cc1ccc(Cl)nc1

>  <category.label>
inactive

$$$$
>  <molecule>
CC[C@H](C)[C@H]1O[C@]2(C=C[C@@H]1C)C[C@@H]1C[C@@H](C/C=C(\C)[C@@H](O[C@H]3C[C@H](OC)[C@@H](O[C@H]4C[C@H](OC)[C@@H](O)[C@H](C)O4)[C@H](C)O3)[C@@H](C)/C=C/C=C3\CO[C@@H]4[C@H](O)C(C)=C[C@@H](C(=O)O1)[C@]34O)O2 (tested in a mixture with another compound)

>  <category.label>
active

$$$$
>  <molecule>
O=C(O)CCCOc1ccc(Cl)cc1Cl

>  <category.label>
inactive

$$$$
>  <molecule>
CCC(C)(C)C(=O)OC1=C(c2ccc(Cl)cc2Cl)C(=O)OC12CCCCC2

>  <category.label>
inactive

$$$$
